Taken from paper PMC7059380.

Biological target: T1, BmILF (Bombyx mori, UniProt A0A1U9WZ16 1-382)
T1 sequence: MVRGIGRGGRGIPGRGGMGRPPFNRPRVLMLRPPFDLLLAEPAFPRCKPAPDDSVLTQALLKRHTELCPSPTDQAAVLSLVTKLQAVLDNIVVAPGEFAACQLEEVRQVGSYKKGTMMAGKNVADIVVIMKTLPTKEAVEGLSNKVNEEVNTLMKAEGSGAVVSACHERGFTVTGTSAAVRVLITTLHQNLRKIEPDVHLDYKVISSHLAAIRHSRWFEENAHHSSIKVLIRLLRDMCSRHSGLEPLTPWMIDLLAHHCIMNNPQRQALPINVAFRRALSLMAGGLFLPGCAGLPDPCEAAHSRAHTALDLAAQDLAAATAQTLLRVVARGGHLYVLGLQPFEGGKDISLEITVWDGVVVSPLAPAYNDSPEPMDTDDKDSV
Assay: MST; pH 6.0, 50 nM probe; EMSA: 20 ul, 2.5% glycerol, 0.05% NP-40, 5 mM MgCl2, 4 mM EDTA, RT 20 min; probes folded in 50 mM Tris-TAE pH 4.0 (also 6.0, 8.0). MST: NanoTemper buffer with 100 mM Tris pH 6.0, 2.93-6000 nM BmILF, 25 C
Conditions: protein: recombinant; label: Cy5; i-motif (folded at pH 4.0)
pKd: −log10 of the molar value.
measurementKind: pKd

INSERT INTO measurements (binder, measurementkind, recordednumber) VALUES
  ('TTGTTGCCCCGCCCCTCGGCCCCCTCGCGCCCCGCACTGG (structured_DNA) [BmPOUM2-WT i-motif (MST)]', 'pKd', 6.37),
  ('CCCCGCGCCCCCCGCGTCCCCCGCACCCCC (structured_DNA) [BGIBMGA003213-WT i-motif (MST)]', 'pKd', 6.43);
